system: ATP; test: switch fluorescence ratio, 500 uM ATP over buffer (Cy3 cluster intensity, sum of 5 cycles each) (fold (ratio)); higher = stronger signal-on switching upon ATP binding; sequences stand for … in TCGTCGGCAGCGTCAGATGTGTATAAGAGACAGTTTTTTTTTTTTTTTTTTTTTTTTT…TC; conditions: aptamer strand: ATP DNA aptamer (quencher-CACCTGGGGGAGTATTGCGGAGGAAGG + anchor), 100 nM annealed; ATP concentration: 500 uM;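 note: ATP exposure 15 min at 22 °C before imaging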
Hi, to clarify the labels: T covers switch fluorescence ratio from 1 upward, F covers anything below 1.

(Q) Quick check: does CTTAAAATGC have switch fluorescence ratio greater than or equal to 1?
(A) T

(Q) Entry TAATAACATG : is its switch fluorescence ratio no less than 1?
(A) F

(Q) Answer whether switch fluorescence ratio of AACGGGCGGG is greater than or equal to 1.
(A) T

(Q) Test whether the sequence GTCGTAGGGG records switch fluorescence ratio of 1 or higher.
(A) T

(Q) Confirm if switch fluorescence ratio reported for the sequence ATAAAGCGAT is 1 or above.
(A) T

(Q) Threshold query (switch fluorescence ratio >= 1) on GAAGAAGGCT
(A) F

(Q) Check this sequence for switch fluorescence ratio at or above 1: TACTTTTGCT
(A) F

(Q) Quick check, switch fluorescence ratio >= 1? TACTGGTGAC
(A) T

(Q) Evaluate TTGTTAATGT : switch fluorescence ratio at minimum 1?
(A) T

(Q) Threshold query (switch fluorescence ratio >= 1) on CTAGGGCACA
(A) T

###

tested on: ATP; assay: switch fluorescence ratio, 500 uM ATP over buffer (Cy3 cluster intensity, sum of 5 cycles each) (fold (ratio)); higher = stronger signal-on switching upon ATP binding; sequences stand for … in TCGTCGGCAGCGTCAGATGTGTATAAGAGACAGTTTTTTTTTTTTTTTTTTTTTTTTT…TC; conditions: aptamer strand: ATP DNA aptamer (quencher-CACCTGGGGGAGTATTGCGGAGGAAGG + anchor), 100 nM annealed; ATP concentration: 500 uM;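 note: ATP exposure 15 min at 22 °C before imaging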
Please go through the items and note down their switch fluorescence ratio.
Keep it simple and answer with nothing but the number.

// sample AAACGATATT , its switch fluorescence ratio was 1.01

The measured switch fluorescence ratio associated with GATTTAGCTG reads 1

switch fluorescence ratio recorded for this sequence, GAGGATGAGG , is 0.954

Please fill in: switch fluorescence ratio reported for TACCAGGCGG = 1.04

Lab book: switch fluorescence ratio of TCGGTGTGCT noted as 1.06

The sequence identified as AAGCTCTTGA registered its switch fluorescence ratio at 1

response.value for GGTTTTATGC (field: switch fluorescence ratio) = 0.985

// switch fluorescence ratio value for AGCGGGGCTG : 1.01

Entry AGCTAAAGGC , switch fluorescence ratio reported as 1.03

switch fluorescence ratio in this record for TGCATAAGAA : 0.955

What the record says about TTTTGGACTC : switch fluorescence ratio is 1.01

The measured switch fluorescence ratio associated with AGCTTTATTA reads 0.998

The measured switch fluorescence ratio associated with GAGATATTGG reads 0.99

Value of switch fluorescence ratio reported for the sequence CGTTACGCTT is 1.05

For this sequence ( CTATTATTCG ), measured switch fluorescence ratio is 1.01

Measured switch fluorescence ratio, TTGTAAACTT : 1.03

// switch fluorescence ratio lookup, sequence = GGTCGGCATA , result: 1.01

Documented switch fluorescence ratio of CGAGTAAAGA : 1.03

// GTTACTGTTC : switch fluorescence ratio value = 0.98

Entry GATAATAATG ; switch fluorescence ratio = 1.02

Measured switch fluorescence ratio, GAATTATTTT : 1.12

# switch fluorescence ratio of CGGGGAAAAA = 1.06

The sequence TTTTTTCGAG showed switch fluorescence ratio equal to 1

get_value(item= CCAGGGTTGG , readout=switch fluorescence ratio) returns 1.04

response.value for CTAAGGTCTT (field: switch fluorescence ratio) = 1.07

Recorded result, TGAATATTTT , switch fluorescence ratio: 0.979

For reference, reported switch fluorescence ratio for AATTCGGATG stands at 1.02

# switch fluorescence ratio of CGGGGTACGT = 0.985

In plain terms, TTTTGTTGAG has a documented switch fluorescence ratio of 1

In plain terms, GGGGCTTCTT has a documented switch fluorescence ratio of 0.982

// GCTATTTTTC : switch fluorescence ratio value = 1

Lookup result for TCGTGGGGTT ; measured switch fluorescence ratio: 1.02

response.value for CAGCAACTCA (field: switch fluorescence ratio) = 1.65

Note to self: switch fluorescence ratio recorded for GACTTTTCGA was 1

Lab note: measured switch fluorescence ratio of AAGGCGAGCT was 0.992

// sample TTCAGGGAGA , its switch fluorescence ratio was 1

The sequence identified as GTTTTATGTA registered its switch fluorescence ratio at 1.03
